tested on: RPMI-8226 leukemia; assay: NCI-60 one-dose screen, 48 h; conditions: 10 µM unless noted
About 83,000 compounds went through this panel and 20% of them were active in at least one assay; those are over-represented in the sample as a whole. Activity calls are given as the source filed them. Rule for the calls: active = growth percent below 10; inactive = the rest.
Select the correct class. Options are active, inactive and nothing else.

Worked examples follow.
compound=O=C1/C(=C/C=C/c2ccco2)SC(=S)N1C1CCCCC1 cat=inactive
compound=CCOc1ccc(NC2=C(Cl)C(=O)c3nc(C)ccc3C2=O)cc1 cat=active
compound=O=C(NNc1nc2cc(F)cc(F)c2n2cccc12)c1cnccn1 cat=inactive

Let's switch to this compound now.
[in] Each compound tested received a call. Report the one for CCCC(=O)NC(c1cccnc1)c1cc(C(C)(C)C)c2cccnc2c1O (stereo not given) .
[out] inactive

---

tested on: SK-MEL-5 melanoma; assay: NCI-60 one-dose screen, 48 h (100 = growth as untreated, 0 = no growth, -100 = all killed); settings: 10 µM unless noted
This is part of a sample that, as a whole, favours compounds with a hit. Of some 83,000 tested, about 20% had one in any assay.
experimental endpoint: growth (%)
// units = %; emit number, no label

[in] Can you share its growth? I mean this compound: CNC1CCc2c(sc(NC(=O)c3ccc(C(C)(C)C)cc3)c2C(N)=O)C1 (stereo unspecified)
[out] 83.6

[in] Requested read-out: growth. Entry: Cc1cc(-c2ccc(Cl)cc2)n(Cc2nnc(SCC(=O)Nc3ccc(S(N)(=O)=O)cc3)n2C2CCCCC2)n1
[out] 100

[in] What value of growth has been reported for the following compound? COc1ccc(NC(=O)CSc2nnc(-c3ccc4nc(-c5ccc(OC)c(OC)c5)[nH]c4c3)o2)cc1OC
[out] 88.3

[in] Quick one: growth for CC1(C)NCCC[C@]2(C)[C@H]3C/C(=N\O)C4[C@@H]5C[C@@](C)(CO)CC[C@]5(C)CC[C@@]4(C)[C@]3(C)CC[C@@H]12 (stereo partly specified) ?
[out] 98.7

[in] Could you share which growth value was measured for COc1ccc(C(=O)Nc2ncc(Cc3ccccc3Cl)s2)cc1 ?
[out] 2.6

[in] Item CNc1ncc2cc(-c3ccc(-c4ncccc4F)cc3Cl)c(=O)n(CC3OCC(N)CO3)c2n1 (stereo unspecified) has what recorded growth?
[out] 82.6

[in] # query: growth of entry Cc1nc2ncc(-c3ccc4ncnc(NCc5ccccc5)c4c3)cc2[nH]1
[out] 82.8

[in] Which growth value belongs to NC(N)=Nc1ccc(Oc2cccc(Nc3ccc(Cl)c(C(F)(F)F)c3)c2)cc1 ?
[out] 43.9

[in] Which measured growth value corresponds to COc1ccc(-c2nc(C(Cl)Cl)nc3cc(-c4ccccc4)nn23)cc1 ?
[out] 34.1

[in] Please report the recorded growth for CCOC(=O)c1c(Nc2ccccc2)nn2c(-c3ccccc3)ccnc12 .
[out] 78.5

[in] What measured growth goes with Cn1cc(-c2nc(N)nnc2-c2c[nH]c3ccccc23)c2cc(Br)ccc21 ?
[out] 22.7

[in] # input compound: CC(=O)c1ccc(Nc2nc(SCC(C)C)nc(-c3ccc(F)cc3)c2C#N)cc1 ; wanted: its growth
[out] 101

[in] Bench note: what growth did COc1ccc(/C=N/NC2=NC3C(S2)N(C)C(=O)N3C)cc1 (stereo unspecified) show?
[out] 31.1

---

test system: CCRF-CEM leukemia; assay: NCI-60 one-dose screen, 48 h (100 = growth as untreated, 0 = no growth, -100 = all killed); conditions: 10 µM unless noted
About 83,000 compounds went through this panel and 20% of them were active in at least one assay; those are over-represented in the sample as a whole.
Label Yes for high-side growth (at or above 70%) and No for low-side growth (below it).

Solved entries:
molecule=Cc1ccc(-n2cc(/C=C/C(=O)c3ccc(O)cc3)c(-c3ccc(S(C)(=O)=O)cc3)n2)cc1 cat=No
molecule="O=C(NNc1nc2cc(F)ccc2n2c(CN3CC4CNCC4C3)ccc12)c1cnccn1 (stereo unspecified)" cat=No
molecule=CC(C)C[C@@H]1N[C@@]2(C(=O)Nc3ccccc32)[C@@H](c2ccc(F)cc2)[C@@H]1C(=O)c1ccc(O)cc1 cat=Yes
molecule=COc1ccc(/C=C(/C)c2ccc3ccc(OC)cc3[o+]2)c(O)c1 cat=No
molecule=Cc1ccc(CSc2nc(-c3ccc(Cl)cc3)c(C#N)c(N3CCNCC3)n2)cc1 cat=No
molecule=O=C(CN1CCN(c2cc(=O)n(-c3ccccc3)c3ccccc23)CC1)Nc1nc(-c2ccccc2)cs1 cat=No
molecule=N#Cc1cccc(NC(=O)c2cc(-c3ccc(F)cc3F)ccc2O)c1 cat=No
molecule="CCO/C=N/C1=C(C#N)C(c2ccc(F)cc2)c2sc3c(CC)cccc3c2O1 (stereo unspecified)" cat=No

[in] # check: growth of Cc1cc(C)c(N2C(=O)CC(Nc3ccc(Cl)cc3Cl)C2=O)c(C)c1 (stereo unspecified) is greater than or equal to 70%
[out] Yes

[in] Say whether COc1cc(Nc2c(C#N)cnn3cc(-c4cnn(CC(C)(C)O)c4)cc23)ccc1Cl shows growth of 70% or more.
[out] No

Measured values drawn from PubChem BioAssay (NCI) for this set.
